method summary: Apparent volume of distribution in ICR mouse plasma at 1.0 mg/kg, iv
Assay type: ADME, organism-based
conditions used: read-out: Vz
measurement name: Vd

>>> df
                        structure_as_smiles  measurement
0  COc1ccc(NC(=O)[C@@H](C)[C@H]2CC[C@H]3[C@@H]4C(=O)C=C5C(C)(C)C(=O)C(C#N)=C[C@]5(C)[C@H]4CC[C@]23C)cc1    20.8 L/kg

###

method summary: Selectivity ratio IC50 for human RPMI-8226 cells to IC50 for human NCI-H929 cells
Type: toxicity
The following molecules are listed with their measured Ratio IC50 values.
measurement name: Ratio IC50

                        structure_as_smiles  measurement
0  C[C@H](C(=O)n1ccnc1)[C@H]1CC[C@H]2[C@@H]3C(=O)C=C4C(C)(C)C(=O)C(C#N)=C[C@]4(C)[C@H]3CC[C@]12C            3
1  COc1ccc(NC(=O)[C@@H](C)[C@H]2CC[C@H]3[C@@H]4C(=O)C=C5C(C)(C)C(=O)C(C#N)=C[C@]5(C)[C@H]4CC[C@]23C)cc1         14.9
2  C[C@H](C(=O)Nc1ccccc1)[C@H]1CC[C@H]2[C@@H]3C(=O)C=C4C(C)(C)C(=O)C(C#N)=C[C@]4(C)[C@H]3CC[C@]12C            1
3  Cc1ccc(NC(=O)[C@@H](C)[C@H]2CC[C@H]3[C@@H]4C(=O)C=C5C(C)(C)C(=O)C(C#N)=C[C@]5(C)[C@H]4CC[C@]23C)cc1          1.2
4  C[C@H](C(=O)O)[C@H]1CC[C@H]2[C@@H]3C(=O)C=C4C(C)(C)C(=O)C(C#N)=C[C@]4(C)[C@H]3CC[C@]12C          1.6
5  C[C@H](C(=O)n1cccn1)[C@H]1CC[C@H]2[C@@H]3C(=O)C=C4C(C)(C)C(=O)C(C#N)=C[C@]4(C)[C@H]3CC[C@]12C          5.7
6  C[C@H](C(=O)Nc1ccc(O)cc1)[C@H]1CC[C@H]2[C@@H]3C(=O)C=C4C(C)(C)C(=O)C(C#N)=C[C@]4(C)[C@H]3CC[C@]12C            5

###

method summary: Terminal elimination half life in ICR mouse plasma at 10 mg/kg, po
Type: ADME, organism-based
conditions used: read-out: beta t1/2 (converted)
measurement name: half-life (h)

In [3]: df
Out[3]:
                        structure_as_smiles  unit_tag  measurement
0  COc1ccc(NC(=O)[C@@H](C)[C@H]2CC[C@H]3[C@@H]4C(=O)C=C5C(C)(C)C(=O)C(C#N)=C[C@]5(C)[C@H]4CC[C@]23C)cc1         h         6.71

###

method summary: Antiproliferative activity against human MM1.R cells assessed as inhibition of cell viability measured after 72 hrs by MTS assay
Assay type: functional, cell-based
conditions used: MM.1R
pIC50: −log10 of the molar value.
measurement name: pIC50

>>> df
                                   compound  measurement
0  Cc1ccc(NC(=O)[C@@H](C)[C@H]2CC[C@H]3[C@@H]4C(=O)C=C5C(C)(C)C(=O)C(C#N)=C[C@]5(C)[C@H]4CC[C@]23C)cc1         6.57
1  C[C@H](C(=O)Nc1ccc(O)cc1)[C@H]1CC[C@H]2[C@@H]3C(=O)C=C4C(C)(C)C(=O)C(C#N)=C[C@]4(C)[C@H]3CC[C@]12C         6.24
2  Nc1cccc2c1CN(C1CCC(=O)NC1=O)C2=O (centres undefined) [LENALIDOMIDE]         5.34
3  C[C@H](C(=O)O)[C@H]1CC[C@H]2[C@@H]3C(=O)C=C4C(C)(C)C(=O)C(C#N)=C[C@]4(C)[C@H]3CC[C@]12C         5.50
